- methodDescription: small molecules captured by biotinylated probe aFSTL3 – biochemical, small-molecule microarray, fluorescence 635/667, stem cell growth factor project, primary screen (AID 1064);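 further: measures binding of the biotinylated anti-FSTL3 antibody to printed compounds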
- testConditions: higher = more signal
recordedEndpoint: composite z-score

compound: CCCCN1CC=CC23O[C@@H]4/C=C\CCCOC(=O)C4[C@H]2C(=O)N(CCCO)[C@@H]3C1=O (some centres undefined)
endpointResult: 0.228

compound: C=CC[C@@]1(C(=O)N2CCCCC2)N=C(c2ccc(OCCCO)cc2)O[C@@H]1c1ccccc1CN=[N+]=[N-]
endpointResult: 0.134

compound: CCOC(=O)C[C@H]1[C@H](OC(=O)c2ccc(-c3ccccc3)cc2)[C@@H](NC(=O)c2ccccc2)c2cc(OCCCO)ccc2N1C(=O)c1ccc2ccccc2n1
endpointResult: -0.168

compound: C[C@H]1C2[C@H](Cc3ccccc3)NC(=O)[C@]23C(=O)NCC(=O)N2CCC[C@H]2C(=O)NC/C=C/CCC/C=C/C3[C@@H]2O[C@]12C (some centres undefined)
endpointResult: -0.106

----------
- methodDescription: inhibition of PAO1 biofilm formation – strain PAO1, LB-PBS medium, absorbance 600 nm, primary screen (AID 1176)
- testConditions: P. aeruginosa PAO1 growth/biofilm, A600, 12 h; higher = more signal
Measured z-score accompanies every entry in the list below.

inputSmiles: COC(=O)c1c2oc(c1C(=O)OC)C(=O)NC1(CCCCC1)c1cn(nn1)C[C@H](Cc1ccccc1)NC(=O)N[C@H](CO)CC2
z-score: 0.383

inputSmiles: COCCCNC(=O)[C@@]1(Sc2ccc(C)cc2)CC(=O)N(Cc2ccccc2Cl)[C@@H]1c1ccc(CO)cc1
z-score: 0.366

inputSmiles: COC(=O)[C@@]1(Cc2ccc(OC)cc2)[C@H]2c3cc(C(=O)N4CCCC4)n(Cc4nc5ccccc5[nH]4)c3C[C@H]2CN1C(=O)c1ccccc1
z-score: -0.222

----------
Measured z-score accompanies every entry in the list below.
- methodDescription: JC-1 mitochondrial signal, unstimulated adipocytes – cell-based, JC-1 fluorescence, 3T3-L1 adipocytes, 24 h, 100 nL compound, profiling panel (AID 1168)
- testConditions: JC-1 mitochondrial fluorescence, higher = more signal, called active from +8 up or from −8 down

compound: O=C1O[C@H](c2ccccc2)[C@H](c2ccccc2)N2[C@H]1[C@@H](C(=O)NC[C@H](O)c1ccccc1)[C@]1(C(=O)Nc3ccc(C#CC4=CCCCC4)cc31)[C@H]2c1ccccc1OCCO
z-score: 1.26
--
compound: O=C1NC(=O)C2C1C=CC(C(O)c1ccc(I)cc1)N2Nc1ccc(Cl)cc1Cl (stereo not drawn)
z-score: -1.25
--
compound: O=C1O[C@@H](c2ccccc2)[C@@H](c2ccccc2)N2[C@@H](c3ccccc3OCCO)[C@]3(C(=O)Nc4ccccc43)[C@@H](C(=O)O)[C@H]12
z-score: -0.742

----------
- Test system: XIP peptide (Xip251-270) binding
- methodDescription: XIP fragment 251-270 binding compounds – biochemical, small-molecule microarray, fluorescence 635/667 nm, 0.1 µg/mL protein, primary screen (AID 1182)
- testConditions: fluorescent protein binding, 635 nm, higher = more signal, called active from +8 up or from −8 down
Outcome: Met for composite z-score of at least 0.3; Not met for anything lower.

compound: Cc1c(NC(=O)/C(C#N)=C/c2cccc([N+](=O)[O-])c2)c(=O)n(-c2ccccc2)n1C
discreteLabel: Met
--
compound: N#Cc1ccc(C(O)C2C=CC3C(=O)N(c4ccccc4)C(=O)C3N2Nc2ccccc2F)cc1 (configuration not stated)
discreteLabel: Met
--
compound: COC(=O)[C@H](Cc1ccccc1)N[C@H](/C=C/C1CC1)[C@@H](O)Cc1ccccc1
discreteLabel: Not met
--
compound: CC(=CC1CCCCC1)[C@@H](NC(=O)c1cccnc1)c1ccc(-c2ccccc2)cc1
discreteLabel: Not met
--
compound: C=C[C@H](C)[C@@H](OC(=O)Nc1ccc(SC)cc1)c1ccc(O)c2ccccc12
discreteLabel: Met
--
compound: CN(C)CCCCCCNC(=O)[C@@H]1C[C@@H]2C(=O)N[C@@H](CCCC[N+](C)(C)C)C(=O)N2[C@@H]1c1ccc(O)cc1
discreteLabel: Met
